Values compiled from paper PMC10938758.

test system: C. elegans young adults; assay: C. elegans dose-response assay, motility; parameters: species or system Caenorhabditis elegans; conditions: Caenorhabditis elegans; 40 h of incubation; read-out: IC50, C. elegans young adult motility
QUANTITY_MEASURED: pIC50
Lab note: report pIC50 as minus log10 of the concentration in molar units, number only.

[ask] Fill: pIC50 (C. elegans young adults) for this compound C[C@](C#N)(COc1cc(C#N)ccc1C(F)(F)F)NC(=O)c1ccc(SC(F)(F)F)cc1 [Monepantel, monepantel]
[reply] 7.52

###

system: exsheathed third-stage larvae (xL3s) of Haemonchus contortus; experiment: Primary screen, H. contortus larval development and phenotype (microscopy); settings: H. contortus larvae; 20 µM; 168 h
QUANTITY_MEASURED: Abnormal phenotype

Solved entries:
1) C[C@](C#N)(COc1cc(C#N)ccc1C(F)(F)F)NC(=O)c1ccc(SC(F)(F)F)cc1 [Monepantel, monepantel] ... Coi
2) CCOCn1c(-c2ccc(Cl)cc2)c(C#N)c(Br)c1C(F)(F)F [MMV1577458, chlorfenapyr] ... Cur
3) C=C(C)[C@H]1Cc2c(ccc3c2O[C@@H]2COc4cc(OC)c(OC)cc4[C@@H]2C3=O)O1 [MMV002519, rotenone] ... Str
4) CO[C@H]1C[C@H](O[C@@H]2/C(C)=C/C[C@@H]3C[C@@H](C[C@]4(CC[C@H](C)[C@@H](C5CCCCC5)O4)O3)OC(=O)[C@@H]3C=C(C)/C(=N/O)[C@H]4OC/C(=C\C=C\[C@@H]2C)[C@]43O)O[C@@H](C)[C@@H]1O [MMV002231, selamectin] ... Cur
5) CCc1nn(C)c(C(=O)NCc2ccc(Oc3ccc(C)cc3)cc2)c1Cl [MMV688934, tolfenpyrad] ... Str

# context switch: different molecule, same Abnormal phenotype
[ask] Fill in: Abnormal phenotype on exsheathed third-stage larvae (xL3s) of Haemonchus contortus, entry CC(F)c1ncnc(NCCc2ccc(OC(F)(F)F)cc2)c1Cl (stereo not drawn) [MMV1794206, flufenerim]
[reply] Cur
